Quick list: total protein half-life in vivo per entry.
Experiment: total protein half-life in vivo (active degradation + dilution); higher = more stable protein
Details: wild type E. coli NCM3722; growth: C-lim chemostat; doubling time 12 h
Quick note: give the figure in h, leave out the unit.

MFKKSVLFATLLSGVMAFSTNADDKIILKHISVSSVSASPTVLEDTIADIARKYNASSWKVTSMRIDNNSTATAVLYK	6.51
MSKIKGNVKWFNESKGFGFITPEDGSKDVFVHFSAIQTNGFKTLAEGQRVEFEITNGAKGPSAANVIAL [P0A972]	2.62
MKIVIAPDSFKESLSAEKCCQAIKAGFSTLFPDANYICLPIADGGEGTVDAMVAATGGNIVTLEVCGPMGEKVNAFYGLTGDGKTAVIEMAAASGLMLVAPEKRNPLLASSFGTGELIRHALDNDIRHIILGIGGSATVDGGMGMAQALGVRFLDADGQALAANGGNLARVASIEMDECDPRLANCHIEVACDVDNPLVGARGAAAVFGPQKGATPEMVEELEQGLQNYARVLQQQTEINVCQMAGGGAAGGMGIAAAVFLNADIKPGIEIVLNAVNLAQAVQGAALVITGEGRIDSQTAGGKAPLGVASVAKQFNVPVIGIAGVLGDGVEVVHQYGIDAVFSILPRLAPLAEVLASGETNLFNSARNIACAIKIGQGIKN	10.4

The record that follows has no total protein half-life in vivo shown yet.
// total protein half-life in vivo value for MKPGCTLFFLLCSALTVTTEAHAQTPDTATTAPYLLAGAPTFDLSISQFREDFNSQNPSLPLNEFRAIDSSPDKANLTRAASKINENLYASTALERGTLKIKSIQMTWLPIQGPEQKAAKAKAQEYMAAVIRTLTPLMTKTQSQKKLQSLLTAGKNKRYYTETEGALRYVVADNGEKGLTFAVEPIKLALSESLEGLNK : 8.36
